Data credit: patent US8013006B2

value.kind: melting point

State the recorded melting point for this entry: CCn1c(-c2ccc(NS(=O)(=O)CCCCl)cc2)c(C#N)c2cc(Cl)ccc21 164 to 167 °C

Check CCn1c(-c2ccc(S(=O)(=O)NC)cc2)c(C#N)c2cc(Cl)ccc21 too. 180 to 186 °C

Check CCC(=O)Nc1ccc(-c2c(C#N)c3ccc(C(F)(F)F)cc3n2CC)cc1 too. 259 to 261 °C

Check COC(=O)Nc1cccc(-c2c(C#N)c3ccc(OC(F)F)cc3n2CC2CC2)c1 too. 92 to 93 °C

Check CCn1c(-c2ccc(NS(=O)(=O)CC)cc2)c(C#N)c2ccc(OC(F)F)cc21 too. 175 to 177 °C

Hi! Can you tell me melting point for each of these molecules?
1. CCn1c(-c2ccc(NS(C)(=O)=O)cc2)c(C#N)c2ccc(OCCCl)cc21
2. CCn1c(C#Cc2cccc(O)c2)c(C#N)c2ccc(C(F)(F)F)cc21
3. CCn1c(-c2ccc(C(=O)NC(C)C)cc2)c(C#N)c2cc(OC)ccc21

["194 to 195 °C", "187 to 189 °C", "220 to 222 °C"]

----------
Test system: HCV replicon
measurement.description: microbe, parasite or virus in culture
Type: cell-based
measurement.context: Hepatitis C virus, 48 h, read-out: Replicon IC5Os μM
value.kind: IC50

Examples with their reported IC50 follow.
State the recorded IC50 for this entry: CCn1c(-c2ccc(NC(=O)c3ccc(F)cc3)cc2)c(C#N)c2ccc(OC(C)C)cc21 < 0.5 µM

Check CCn1c(C#Cc2cccc(NC=O)c2)c(C#N)c2ccc(OC)cc21 too. 0.5 to 2 µM

Hi! Can you tell me IC50 for each of these compounds?
1. CCn1c(C#Cc2ccccc2Cl)c(C#N)c2ccc(OC)cc21
2. CCCC(=O)Nc1ccc(-c2c(C#N)c3ccc(OC)cc3n2CC)cc1
3. CCn1c(C#Cc2ccc(NC(=O)C3CCC3)cc2)c(C#N)c2ccc(OC)cc21
4. CCn1c(C#Cc2ccc(N(C)C)cc2)c(C#N)c2ccc(C(F)(F)F)cc21

["0.5 to 2 µM", "< 0.5 µM", "0.5 to 2 µM", "0.5 to 2 µM"]

Hi! Can you tell me IC50 for each of these compounds?
1. COc1ccc2c(C#N)c(C#Cc3ccc(C(C)(C)C)cc3)[nH]c2c1
2. CCn1c(-c2ccc(NC(=O)C3CC3)cc2)c(C#N)c2ccc(OC)cc21

1: 0.5 to 2 µM; 2: < 0.5 µM

----------
System: HCV replicon
measurement.description: microbe, parasite or virus in culture
Format: cell-based
measurement.context: Hepatitis C virus, 48 h, read-out: Replicon IC5Os
pIC50: −log10 of the molar value.
What pIC50 was measured for each of the following?

State the recorded pIC50 for this entry: CCOC(=O)Nc1ccc(-c2c(C#N)c3ccc(OCCCn4cncn4)cc3n2CC)cc1 [Compound 538] 5.70 to 6.30

Check CCOC(=O)Nc1ccc(-c2c(C#N)c3ccc(OC(F)F)cc3n2CC2CC2)cc1 [Compound 735] too. > 6.30

Check CCOC(=O)Nc1cccc(-c2c(C#N)c3ccc(OCCCN4CCN(C)CC4)cc3n2CC)c1 [Compound 526] too. > 6.30

Check CCCS(=O)(=O)Nc1ccc(-c2c(C#N)c3ccc(OCCF)cc3n2CC)cc1 [Compound 550] too. 5.70 to 6.30

Check CCn1c(-c2ccc3c(c2)CCN3S(=O)(=O)CC)c(C#N)c2ccc(OC)cc21 [Compound 702] too. 5.70 to 6.30

Check CCn1c(-c2ccc(N(C)S(=O)(=O)CCl)cc2)c(C#N)c2ccc(OC)cc21 [Compound 652] too. > 6.30

Check CCn1c(-c2ccc3c(c2)N(S(C)(=O)=O)CC3)c(C#N)c2ccc(OC)cc21 [Compound 752] too. 5.70 to 6.30

Check CCCOC(=O)Nc1ccc(-c2c(C#N)c3cc(Cl)ccc3n2CC)cc1 [Compound 619] too. 5.70 to 6.30

Hi! Can you tell me pIC50 for each of these compounds?
1. CCn1c(-c2ccc(NS(=O)(=O)CC)cc2)c(C#N)c2ccc(OCc3cccnc3)cc21 [Compound 669]
2. CCOC(=O)Nc1ccc(-c2c(C#N)c3ccc(OCCCN4CCOCC4)cc3n2CC)cc1 [Compound 539]
3. CCOc1ccc2c(C#N)c(-c3ccc(NS(=O)(=O)CC)cc3)n(C3CCC3)c2c1 [Compound 473]

1: > 6.30; 2: > 6.30; 3: > 6.30

Hi! Can you tell me pIC50 for each of these compounds?
1. CCCCn1c(-c2ccc(NS(=O)(=O)CC)cc2)c(C#N)c2ccc(OC)cc21 [Compound 707]
2. CCn1c(-c2ccc3c(c2)CCN3C(=O)NC(C)C)c(C#N)c2ccc(OC)cc21 [Compound 681]
3. CCn1c(-c2ccc(NC(=O)OCCCl)cc2)c(C#N)c2ccc(OC)cc21 [Compound 637]
4. CCCNC(=O)Nc1ccc(-c2c(C#N)c3ccc(OC(F)F)cc3n2CC2CC2)cc1 [Compound 741]
5. CCn1c(-c2cccc(NC(=O)OCCOC)c2)c(C#N)c2ccc(OC)cc21 [Compound 298]
6. CCOc1ccc2c(C#N)c(-c3ccc(NS(C)(=O)=O)cc3)n(C)c2c1 [Compound 413]
7. CCCn1c(-c2ccc(NS(=O)(=O)CC)cc2)c(C#N)c2cc(OCc3ccccc3)ccc21 [Compound 713]
8. CCn1c(-c2ccc(NS(=O)(=O)CC)cc2)cc2ccc(OC(F)F)cc21 [Compound 516]

["5.70 to 6.30", "5.70 to 6.30", "> 6.30", "> 6.30", "5.70 to 6.30", "> 6.30", "5.70 to 6.30", "5.70 to 6.30"]

Hi! Can you tell me pIC50 for each of these compounds?
1. CCCn1c(-c2ccc(NS(=O)(=O)CCC)cc2)c(C#N)c2ccc(OC)cc21 [Compound 621]
2. CCCn1c(-c2ccc(NC(=O)OC(C)C)cc2)c(C#N)c2ccc(OC)cc21 [Compound 641]
3. CCn1c(-c2cccc(NC(=O)Oc3ccc(Cl)cc3)c2)c(C#N)c2ccc(OC)cc21 [Compound 306]
4. CCn1c(-c2ccc(N3CCN(Cc4ccccc4)S3(=O)=O)cc2)c(C#N)c2ccc(OC)cc21 [Compound 727]

5.70 to 6.30
5.70 to 6.30
5.70 to 6.30
5.70 to 6.30

Hi! Can you tell me pIC50 for each of these compounds?
1. CCn1c(-c2cccc(NS(=O)(=O)NC(C)C)c2)c(C#N)c2ccc(OC)cc21 [Compound 542]
2. CCn1c(-c2ccc(NC(=O)C3CC3)cc2)c(C#N)c2ccc(OCCF)cc21 [Compound 544]
3. CCn1c(-c2ccc3c(c2)oc(=O)n3C)c(C#N)c2ccc(OC)cc21 [Compound 341]
4. C#CCOC(=O)Nc1cccc(-c2c(C#N)c3ccc(OC)cc3n2CC)c1 [Compound 350]
5. CCn1c(-c2ccc(N3CCCS3(=O)=O)cc2)c(C#N)c2ccc(OCCF)cc21 [Compound 699]
6. CCCOc1ccc2c(C#N)c(-c3ccc(N4CCCS4(=O)=O)cc3)n(CC)c2c1 [Compound 667]

1: 5.70 to 6.30; 2: > 6.30; 3: 5.70 to 6.30; 4: 5.70 to 6.30; 5: > 6.30; 6: > 6.30

Hi! Can you tell me pIC50 for each of these compounds?
1. CCCOC(=O)Nc1cccc(-c2c(C#N)c3ccc(OC(C)C)cc3n2CC)c1 [Compound 585]
2. CCn1c(-c2ccc(NS(=O)(=O)CC)cc2)c(C#N)c2ccc(C(F)(F)F)cc21 [Compound 366]
3. CCn1c(-c2ccc(N(C)S(=O)(=O)CCN3CCCC3)cc2)c(C#N)c2ccc(OC)cc21 [Compound 697]
4. CCNC(=O)Nc1cccc(-c2c(C#N)c3ccc(OC)cc3n2CC)c1 [Compound 401]

1: 5.70 to 6.30; 2: > 6.30; 3: > 6.30; 4: > 6.30

----------
What pIC50 was measured for each of the following?
System: HCV replicon
measurement.description: microbe, parasite or virus in culture
Assay type: cell-based
measurement.context: Replicon IC50 values are determined by firefly luciferase signal; bicistronic replicon, 2 days; read-out: Replicon IC5Os
pIC50: −log10 of the molar value.

State the recorded pIC50 for this entry: CCOC(=O)Nc1cccc(-c2c(C#N)c3cc(Cl)ccc3n2CC)c1 < 5.70

Check CCn1c(-c2ccc(C(=O)OC)cc2)c(C#N)c2cc(OC)ccc21 too. < 5.70

Check CCOC(=O)Nc1cccc(-c2[nH]c3cc(OC)ccc3c2C#N)c1 too. < 5.70

Check CCn1c(-c2ccc(NC(=O)NCCc3ccccc3)cc2)c(C#N)c2ccc(OC)cc21 too. < 5.70

Hi! Can you tell me pIC50 for each of these compounds?
1. COc1ccc2c(C#N)c(C#Cc3ccccc3)[nH]c2c1
2. CCOc1ccc2c(C#N)c(-c3ccc(NS(C)(=O)=O)cc3)n(C(C)C)c2c1
3. CCCn1c(-c2cccc(NS(=O)(=O)CC)c2)c(C#N)c2ccc(OC)cc21
4. CCn1c(-c2ccc(C(=O)N(C)C)cc2)c(C#N)c2ccc(OC)cc21
5. N#Cc1cn(CC2CC2)c2cc(OC(F)(F)F)ccc12

1: < 5.70; 2: 5.70 to 6.30; 3: < 5.70; 4: < 5.70; 5: 5.70 to 6.30
